READOUT_KIND: logP

[
  {
    "COMPOUND_STRING": "CCN(CC)CCNC(=O)c1ccccc1OC",
    "logP": 1.98
  },
  {
    "COMPOUND_STRING": "COc1ccccc1C(=O)NCCN(C)C",
    "logP": 1.14
  }
]

P = COc1ccccc1C(=O)NCCCN(C)C
Q = COc1ccccc1C(=O)NCCN
Req: Form field 'greater logP' accepts P or Q ; which applies? Your choice should be expressed through its label.
Resp: P

----------
- PROTOCOL_TEXT: method code SF-AS, from DOI: 10.1002/hlca.19830660215
- COND: pH 11.0
READOUT_KIND: logD

[
  {
    "COMPOUND_STRING": "CCN(CC)CCCNC(=O)c1ccccc1",
    "logD": 1.56
  }
]

P = CCN(CC)CCNC(=O)c1ccccc1
Q = CN(C)CCCNC(=O)c1ccccc1
R = NCCNC(=O)c1ccccc1
Req: Could you please order the items by logD, going from the lowest number to the highest? Reply: labels, ordered per the request.
Resp: R, Q, P
(R: 0.06, Q: 1.27, P: 1.84)
